Attribution: ChEMBL document CHEMBL1201862

System: SK-MEL-5
Test: NCI tumour cell line growth inhibition, 48 h
Activity calls are given as the source filed them. No stated cut-off is given here; in the data, active = GI50 up to about 1.1 µM and inactive = higher.
Select the matching outcome among active, inactive

{"compound": "CC(C)NC(=O)O/N=C1\\CCC2[C@@H]3CC=C4C[C@@H](OC(=O)NC(C)C)CC[C@]4(C)C3CC[C@]12C (stereo partly specified)", "study target": "SK-MEL-5", "category label": "active"}
{"compound": "CC(=O)NC(CCCCNCc1ccccc1)C(=O)NCc1ccccc1 (stereo unspecified)", "study target": "SK-MEL-5", "category label": "inactive"}
{"compound": "O=C(NCC#CCO)C(F)(F)F", "study target": "SK-MEL-5", "category label": "inactive"}

Exercise: Call for entry CC(N/N=C(\S)N1CCCC1)c1cccnn1 (stereo unspecified) :
Solution: active

Exercise: Test call, this compound: `Cc1ccc(/C(O)=C/c2nc3ccccc3oc2=O)cc1`
Solution: inactive

Exercise: Check the results log: what was the call for `COc1ccc2c(=O)c3cc([N+](=O)[O-])ccc3n(C)c2c1` ?
Solution: inactive

----------
Tested on: OVCAR-8
Experiment: NCI tumour cell line growth inhibition, 48 h
The source made the active and inactive calls. No stated cut-off is given here; in the data, active = GI50 up to about 1.1 µM and inactive = higher. Peptide text beside a SMILES is read from it. * marks the point of attachment. Cbz = O=C(OCc1ccccc1)*; CH2Cl = ClC*
Write down the outcome that applies. Available outcomes: active, inactive

The following compounds have reported results that may help.
{"compound": "CC(O)(/C=C/c1ccccc1)P(=O)(O)c1ccccc1 (stereo unspecified)", "category label": "inactive"}
{"compound": "C[C@]12CC[C@H](O)CC1=CC[C@@H]1C2CC[C@]2(C)c3nn(-c4ccc(F)cc4)nc3CC12 (stereo partly specified)", "category label": "inactive"}
{"compound": "CC(C)CC(NC(=O)OCc1ccccc1)C(=O)NC(Cc1ccccc1)C(=O)CCl (stereo not drawn) (Cbz-Leu-Phe-CH2Cl; configuration not given here)", "category label": "inactive"}
{"compound": "CN(C(=O)C12C3C4C1C1C2C3C41C(O)C(C)(C)C)C(C)(C)C (stereo unspecified)", "category label": "inactive"}
{"compound": "Cc1ccc(C)c(NC(=O)c2cccc([N+](=O)[O-])c2O)c1", "category label": "inactive"}

Exercise: Hey, what did the test say about COc1cc(Br)c(CC2C3=C(CCN2C(=O)C2CCC2)CC(=O)CC3)cc1O (stereo unspecified) ?
Solution: inactive

Exercise: Per the records of this test, what outcome belongs to `Oc1cccnc1/C=N/OCc1ccccc1` ?
Solution: inactive

Exercise: Identify the outcome logged in this assay for the compound shown: O=C(NC1CCC[C@H]1OC(=O)c1ccccc1)c1ccccc1 (stereo partly specified)
Solution: inactive

Exercise: Given `O=c1[nH]c(=S)c2cc3c(=S)[nH]c(=O)n(CCO)c3nc2n1CCO` , state the outcome it received in this test.
Solution: inactive

Exercise: Identify the outcome logged in this assay for the compound shown: COc1cc(-c2[o+]c3cc(O)cc(OC4OC(CO)C(O)C(O)C4O)c3cc2OC2OC(CO)C(O)C(O)C2O)cc(OC)c1O (stereo unspecified)
Solution: inactive

Exercise: # outcome recorded in this test, key = `COc1ccccc1/N=C1\SCCN1C(=S)Nc1ccc(S(=O)(=O)/N=C/N(C)C)cc1`
Solution: inactive

Exercise: // param item: O=C1OC(C2Cc3ccccc3C2=O)c2ccccc21 (stereo unspecified) ; yields the recorded call
Solution: inactive

Exercise: Call for entry O=c1[nH]c(N/N=C\C(O)C(O)C(O)CO)nc2ccccc12 (stereo unspecified) :
Solution: inactive

Exercise: I'd appreciate the recorded outcome for `Cc1ccc(C)c(COCCOCn2ccc(N)nc2=O)c1` from this test.
Solution: inactive

Exercise: Status in this test for `C/C(CCN(C)C)=N/O` ?
Solution: active

Exercise: Outcome? `CNC(=O)N1CCN(C(=O)NC)CCN(C(=O)NC)CC1`
Solution: inactive

Exercise: Look up the recorded call for `N=C(N)NCCN1CC2CCC(CC2)C1` in this test.
Solution: inactive

Exercise: For `CCCN(CCC)c1c([N+](=O)[O-])cc(C(N)=O)cc1[N+](=O)[O-]` , which call appears in the assay record?
Solution: inactive

Exercise: Hey, what did the test say about `CN(C)Cc1cc(C(=O)/C=C/c2ccc(Cl)c(Cl)c2)cc(CN(C)C)c1O` ?
Solution: inactive

Exercise: Given `N=C(N)NS(=O)(=O)c1ccc(NCc2c3ccccc3[n+]([O-])c3ccccc23)cc1` , state the outcome it received in this test.
Solution: inactive

Exercise: Hi team, can someone confirm the assay call for `Cc1cccc2c1C/C(=C\c1cccc(C)c1C(=O)O)C2=O` ?
Solution: inactive

----------
Test system: A498
Assay: NCI tumour cell line growth inhibition, 48 h
Active and inactive are the calls of the source. No stated cut-off is given here; in the data, active = GI50 up to about 1.1 µM and inactive = higher.
Parameter call: string, one of active, inactive

{"compound": "CC[C@@H]1CC[C@@H]2[C@H](CC[C@]3(C)[C@@H](OC(C)=O)CC[C@@H]23)[C@H]1C(=O)OC", "study target": "A498", "category label": "inactive"}
{"compound": "Nc1ccc2[nH]c(C(=O)N3CC(CCl)c4c3cc(N)c3ccccc43)cc2c1 (stereo not drawn)", "study target": "A498", "category label": "active"}
{"compound": "CCOP(=O)(OCC)/C(C#N)=C/c1cnc(C)[nH]1", "study target": "A498", "category label": "inactive"}

Exercise: Test call, this compound: `CC[C@](C)(O)C(=O)O[C@H]1C(=O)O[C@@H]2C[C@H]3C(C)=C[C@H](O)[C@@H](O)[C@]3(C)[C@H]3[C@@]4(O)OC[C@]32[C@@H]1[C@@H](C)[C@H]4O`
Solution: inactive

Exercise: Kindly provide the recorded test outcome for the following compound: COc1cccc(C2c3cc4c(cc3OC(Nc3ccccc3)C2C)OCO4)c1OC (stereo not drawn)
Solution: inactive

Exercise: # outcome recorded in this test, key = COc1cc(C2c3cc4c(cc3OC(NNS(=O)(=O)c3ccc(C)cc3)C2C)OCO4)cc(OC)c1O (stereo not drawn)
Solution: inactive

Exercise: Recorded test outcome, item `CCOC(=O)c1c(N2CCCC2)[nH]c(=O)c(C(c2ccco2)c2c(O)c(C(=O)OCC)c(N3CCCC3)[nH]c2=O)c1O`
Solution: inactive

Exercise: Status in this test for `N#Cc1nc(/C=C/c2ccccc2)oc1N` ?
Solution: inactive

Exercise: Just curious, what result did `Oc1cccnc1/C=N/OCc1ccccc1` get here?
Solution: inactive

Exercise: // return assay outcome for CC1=NN=C(N)N/C1=C\C(Sc1ccc(Cl)cc1)c1ccc([N+](=O)[O-])cc1 (stereo not drawn)
Solution: inactive

Exercise: Given Nc1ccc2c(c1)C1Oc3ccccc3CC1CO2 (stereo not drawn) , state the outcome it received in this test.
Solution: inactive

Exercise: What outcome does the record of this test show for COc1ccc(N2C(=O)C3c4[nH]c5ccccc5c4C4CCC(c5ccccc5)CC4C3C2=O)cc1 (stereo not drawn) ?
Solution: inactive

Exercise: # fetch the recorded call for CC(C)NC(=O)O/N=C1\CCC2[C@@H]3CC=C4C[C@@H](OC(=O)NC(C)C)CC[C@]4(C)C3CC[C@]12C (stereo partly drawn) here
Solution: inactive

Exercise: # fetch the recorded call for `COc1ccccc1/N=C1\SCCN1C(=S)Nc1ccc(S(=O)(=O)/N=C/N(C)C)cc1` here
Solution: inactive

Exercise: What call does the record list for `COc1ccc(Nc2nc3cc(C(F)(F)F)ccc3nc2C(=O)O)cc1OC` ?
Solution: inactive

Exercise: # outcome recorded in this test, key = `C/C(=N\N=C(/S)N1CC2CCC(CC2)C1)c1cccc[n+]1[O-]`
Solution: inactive

Exercise: Look up the recorded call for C=CCN1CCC23c4c5ccc(O)c4OC2C(=NN=C2CCC4(O)C6Cc7ccc(O)c8c7C4(CCN6CC=C)C2O8)CCC3(O)C1C5 (stereo not drawn) in this test.
Solution: inactive

Exercise: Please let me know the test result on file for CCCCCCCCCCCCCCCCCCNC(=O)OCC(CNS(=O)(=O)CCC[n+]1cccc2ccccc21)COC (stereo not drawn) .
Solution: inactive

----------
Let's look at some molecules and their measured GI50.
Test system: NCI/ADR-RES
Test: NCI tumour cell line growth inhibition, 48 h
Activity calls are given as the source filed them. No stated cut-off is given here; in the data, active = GI50 up to about 1.1 µM and inactive = higher.

Solved entries (count: 2):
{"molecule": "CCOc1nc2sc3c(c2c(=O)n1CCSSCCn1c(OCC)nc2sc4c(c2c1=O)CCCC4)CCCC3", "GI50": "> 100 µM (inactive)"}
{"molecule": "CC(C)=CCc1c(O)cc2oc(-c3ccc(O)cc3O)cc(=O)c2c1O", "GI50": "33.3 µM (inactive)"}

Exercise: I'd like to know its GI50. The molecule in question is NC1(C(=O)O)CCCC1 [CYCLOLEUCINE]
Solution: > 625 µM (inactive)

----------
GI50: recorded values
Test system: UACC-257
Experiment: NCI tumour cell line growth inhibition, 48 h
Calls of active or inactive are those of the source. No stated cut-off is given here; in the data, active = GI50 up to about 1.1 µM and inactive = higher.

Past entries and their recorded results:
{"compound": "CC(=O)OCC(OC(C)=O)C(OC(C)=O)C(OC(C)=O)C(=O)CNn1c(-c2ccccc2Cl)nc2ccc(Br)cc2c1=O (stereo not given)", "GI50": "> 100 µM (inactive)"}
{"compound": "O=c1cccccc1NCCCCNc1cccccc1=O", "GI50": "> 100 µM (inactive)"}
{"compound": "CCOC1SC(SC)=NN1C(=O)C(OC(C)=O)C(OC(C)=O)C(OC(C)=O)C(OC(C)=O)C(=O)N1N=C(SC)SC1OCC (stereo not given)", "GI50": "> 100 µM (inactive)"}

Exercise: Request the reported GI50 associated with `COC(=O)/N=[N+](\[O-])C(c1ccc(Cl)cc1)c1ccc(Cl)cc1`
Solution: 34.6 µM (inactive)

Exercise: // returns reported GI50 for input `O=C1C(Cl)=C(N2C(=O)CCC2=O)C(=O)c2ccccc21`
Solution: 25.2 µM (inactive)
